Readings of T/C for the listed molecules
System: CD2F1 mice, L1210 leukemia ip, survival T/C
Experiment: NCI In Vivo Anticancer Drug Screen. Data for tumor model L1210 Leukemia (intraperitoneal) in CD2F1 (CDF1) mice
Conditions: endpoint: mean survival time; dose: 50.0 mg/kg/injection; schedule: Q04DX002 (ip); vehicle: saline with Tween-80; higher = longer survival
Inconclusive results and toxic doses are left out.
measured.endpoint: T/C

molecule="C/C(=N/O)C1=C(O)C(Cc2ccccc2)NC1=O (centres undefined)" value_measured="103 % of control"
molecule=O=C(/C=C/c1ccccc1)Oc1cc(O)cc(O)c1 value_measured="105 % of control"
molecule=N#CC(=N)N1CCN(C(=N)C#N)CC1 value_measured="86 % of control"
molecule="N#C/C(=C\\C1CCC(Cl)C(Cl)C1)C1CCC([N+](=O)[O-])CC1 (centres undefined)" value_measured="88 % of control"
molecule="C1CC2(CCC13CS3)CS2 (centres undefined)" value_measured="98 % of control"
molecule=C1CC[N-]CC1.C1CC[N-]CC1.[Cl][Pd][Cl] value_measured="96 % of control"
molecule="COC(=O)C(C(N)=O)C(=O)C1C(=O)N(c2ccccc2)N=C1C (centres undefined)" value_measured="97 % of control"
molecule=[Cl][Hg][CH2]CN1CCCCC1 value_measured="94 % of control"
molecule=O=[N+]([O-])c1cccc(S(=O)(=O)N2CCCCC2)c1 value_measured="95 % of control"
molecule="CC(=Nc1ccccc1)C1=C(O)C(Cc2ccc(O)c(O)c2)NC1=O (centres undefined)" value_measured="103 % of control"
molecule="COC1CCC(/C=C(\\C#N)C2CCC([N+](=O)[O-])CC2)CC1Br (centres undefined)" value_measured="96 % of control"
molecule=COc1cccc(/C=C(\C(=O)O)c2cccc(OC)c2)c1 value_measured="89 % of control"
molecule="COc1ccc(C(O)(c2ccccc2)C(O)c2ccccc2)cc1 (centres undefined)" value_measured="86 % of control"
molecule="O=C1C=CC(=O)C2C3C=CC(C/C=C\\C3)C12 (centres undefined)" value_measured="94 % of control"
molecule="COc1ccc2c(c1)CCC1C2CCC2(C)C(=O)NC(=O)N12 (centres undefined)" value_measured="86 % of control"
molecule=O=c1[nH]c2ccccc2nc1Cl value_measured="94 % of control"
molecule="O=C(O)CCCCCCCC(Br)C(Br)CCCCCCCC(=O)O (centres undefined)" value_measured="91 % of control"
molecule=O=C1c2ccccc2C(=O)C1c1cc2ccccc2cn1 value_measured="91 % of control"
molecule="O=C1C2C3CC4C2C(Br)C2C1C3C42 (centres undefined)" value_measured="100 % of control"
